The reported numbers originate from patent US9572881B2.

# assayName: Phototoxicity (glow lamp) and dark toxicity by hemolysis of bovine erythrocytes
# Type: cell-based
# appliedConditions: bovine, bovine erythrocytes; Glow Lamp, 1 μM, exposure 30 min
valueKind: hemolysis at 30 min, 1 µM

>>> result("CN1\\C(=C/C=C/C=C/C=C/C2=[N+](C)c3cc(I)cc(I)c3C2(C)CCCCCC(=O)O)C(C)(CCCCCC(=O)O)c2c(I)cc(I)cc21.[I-] (stereo not shown)")
"80%"

====

# assayName: Phototoxicity (glow lamp) and dark toxicity by hemolysis of bovine erythrocytes
# Format: cell-based
# appliedConditions: bovine, bovine erythrocytes; Glow Lamp, 1 μM, exposure 60 min
valueKind: hemolysis at 60 min, 1 µM

>>> result("CN1\\C(=C/C=C/C=C/C=C/C2=[N+](C)c3ccccc3C2(C)C)C(C)(C)c2ccccc21.[I-] [HITC, reference compound]")
"4.4%"

====

# assayName: Fluorescence emission spectra and quantum yield relative to HITC
# Assay type: physicochemical
# appliedConditions: Methanol
valueKind: Fluorescence quantum yield (%)

>>> numericvalue("CC1(CCCCCC(=O)O)C(/C=C/C=C/C=C/C=C2\\N(CCCS(=O)(=O)O)c3cc(I)c(I)c(I)c3C2(C)CCCCCC(=O)O)=[N+](CCCS(=O)(=O)[O-])c2cc(I)c(I)c(I)c21 (stereo not shown)")
44
>>> numericvalue("CN(C)c1ccc(SC2=C(/C=C/C3=[N+](C)c4ccc(I)cc4C3(C)C)CCC/C2=C\\C=C2/N(C)c3ccc(I)cc3C2(C)C)cc1.[I-]")
14
>>> numericvalue("CN1\\C(=C/C=C/C=C/C=C/C2=[N+](C)c3cc(I)c(I)c(I)c3C2(C)CCCCCC(=O)N2CC[N+]3(CC2)CC[N+]2(CCNCC2)CC3)C(C)(CCCCCC(=O)N2CC[N+]3(CC2)CC[N+]2(CCNCC2)CC3)c2c1cc(I)c(I)c2I.[Cl-].[Cl-].[Cl-].[Cl-].[Cl-] (stereo not shown)")
38
>>> numericvalue("CN1/C(=C\\C=C2/CCCC(/C=C/C3=[N+](C)c4cc(I)c(I)c(I)c4C3(C)C)=C2Cl)C(C)(C)c2c1cc(I)c(I)c2I.[I-]")
21
>>> numericvalue("CN1/C(=C\\C=C2/CCCC(/C=C/C3=[N+](C)c4ccc(I)cc4C3(C)C)=C2Cl)C(C)(C)c2cc(I)ccc21.[I-]")
16
>>> numericvalue("CN1\\C(=C/C=C/C=C/C=C/C2=[N+](C)c3cc(I)c(I)c(I)c3C2(C)CCCCCC(=O)O)C(C)(CCCCCC(=O)O)c2c1cc(I)c(I)c2I.[I-] (stereo not shown)")
47
>>> numericvalue("CC(C)(C)C1=CC(=C/C=C/C=C/C=C/C2=[N+](CCCS(=O)(=O)[O-])c3ccc(I)cc3C2(C)CCCCCC(=O)O)C=C(C(C)(C)C)O1 (stereo not shown)")
6
>>> numericvalue("CN1\\C(=C/C=C/C=C/C=C/C2=[N+](C)c3cc(Br)c(Br)c(Br)c3C2(C)C)C(C)(C)c2c1cc(Br)c(Br)c2Br.[I-]")
50
>>> numericvalue("CC1(C)C(/C=C/C=C/C=C/C=C2\\N(CCCCS(=O)(=O)[O-])c3ccc4ccccc4c3C2(C)C)=[N+](CCCCS(=O)(=O)[O-])c2ccc3ccccc3c21.[Na+] [ICG, Indocyanine green, reference compound]")
16
>>> numericvalue("CC1(CCCCCC(=O)N2CC[N+]3(CC2)CC[N+]2(CCNCC2)CC3)C(/C=C/C=C/C=C/C=C2\\N(CCCS(=O)(=O)[O-])c3cc(I)c(I)c(I)c3C2(C)CCCCCC(=O)N2CC[N+]3(CC2)CC[N+]2(CCNCC2)CC3)=[N+](CCCS(=O)(=O)[O-])c2cc(I)c(I)c(I)c21.[Cl-].[Cl-].[Cl-] (stereo not shown)")
26
>>> numericvalue("CC1(CCCCCC(=O)NCCS(=O)(=O)O)C(/C=C/C=C/C=C/C=C2\\N(CCCS(=O)(=O)O)c3cc(I)c(I)c(I)c3C2(C)CCCCCC(=O)NCCS(=O)(=O)O)=[N+](CCCS(=O)(=O)[O-])c2cc(I)c(I)c(I)c21 (stereo not shown)")
39
>>> numericvalue("CN1\\C(=C/C=C/C=C/C=C/C2=[N+](C)c3ccccc3C2(C)C)C(C)(C)c2ccccc21.[I-] [HITC, reference compound]")
28
>>> numericvalue("CN1\\C(=C/C=C/C=C/C=C/C2=[N+](C)c3cc(I)c(I)c(I)c3C2(C)C)C(C)(C)c2c1cc(I)c(I)c2I.[I-]")
43
>>> numericvalue("CN1\\C(=C/C=C/C=C/C=C/C2=[N+](C)c3cc(I)cc(I)c3C2(C)C)C(C)(C)c2c(I)cc(I)cc21.[I-]")
46
>>> numericvalue("C[N+]1=C(C=CC=CC=CC=C2N(CCCCS(=O)(=O)[O-])c3ccc(S(=O)(=O)O)cc3C2(C)C)C(CCCCCC(=O)O)c2c(I)cc(I)cc21 (stereo not shown)")
43
>>> numericvalue("CN1\\C(=C/C=C/C=C/C=C/C2=[N+](C)c3ccc(I)cc3C2(C)C)C(C)(C)c2cc(I)ccc21.[I-]")
30
